# testProtocol: in vitro
# testSettings: human, liver microsomes
Rule: microsomal CLint under 40 µL/min/mg gives -1, otherwise 1.

- compound: "O=C(O[C@H]1C[N+]2(CCCOc3ccccc3)CCC1CC2)C(O)(c1cccs1)c1cccs1"
  assignedLabel: 1
- compound: "N#CN=C(N)c1sc(Nc2ccccc2)nc1N"
  assignedLabel: -1
- compound: "Cc1ccc(CNC(=O)C2CCCN2S(=O)(=O)c2ccc(F)cc2)cc1 (stereo unspecified)"
  assignedLabel: 1
- compound: "CC(=O)Nc1ccc2c(c1)c(Sc1ccc(Cl)cc1)c(C)n2CC(=O)O"
  assignedLabel: -1
- compound: "O=C1COC2(CCN(S(=O)(=O)c3ccc(-c4ccc5cnccc5c4)cc3)CC2)CN1C1CC1"
  assignedLabel: 1
- compound: "CCOC(=O)N1CCC(Nc2cc(OC)ccn2)CC1"
  assignedLabel: -1
- compound: "Clc1ccc2ncc(-c3cccc(NC4CNC4)n3)n2c1"
  assignedLabel: -1
- compound: "COc1ccccc1S(=O)(=O)NC(=O)N1CCC(N2CCC(Oc3ccc(Cl)c(Cl)c3)CC2)CC1"
  assignedLabel: -1
- compound: "Oc1ncnc2c1c(-c1ccccc1)cn2-c1ccc(Br)cc1"
  assignedLabel: 1
- compound: "CCN(C(=O)Cc1ccc(S(C)(=O)=O)cc1)C1CCN(CCC(c2ccccc2)c2ccc(C)cc2)CC1 (stereo unspecified)"
  assignedLabel: 1
- compound: "CC1=C(CC(=O)O)c2cc(F)ccc2/C1=C\\c1ccc([S+](C)[O-])cc1 (stereo unspecified)"
  assignedLabel: -1
- compound: "COc1ccc([C@@H]2Sc3ccccc3N(CCN(C)C)C(=O)[C@@H]2OC(C)=O)cc1"
  assignedLabel: 1
- compound: "Cc1ccc2nc(CCNCCCO)ccc2c1NC(=O)CC12CC3CC(CC(C3)C1)C2"
  assignedLabel: -1
- compound: "O=C1NC(=O)C(c2cnc3ccccn23)=C1c1cn2c3c(cccc13)CN(C(=O)N1CCOCC1)CC2"
  assignedLabel: 1
- compound: "OCc1cc(C(O)CNCCCCCCOCCCCc2ccccc2)ccc1O (stereo unspecified)"
  assignedLabel: 1
- compound: "CCC(CC)NC(=O)c1cn(-c2ccccc2)nc1NS(=O)(=O)c1ccc(C)cc1"
  assignedLabel: -1
- compound: "Nc1nc(-c2ccccn2)nc(N)c1Cc1ccc(Cl)cc1Cl"
  assignedLabel: -1
- compound: "CC1N=C(N)N=C(N)N1c1ccc(Cl)cc1 (stereo unspecified)"
  assignedLabel: -1
- compound: "NS(=O)(=O)c1ccc(Nc2nccc(-c3ccccc3)n2)cc1"
  assignedLabel: -1
- compound: "COc1cc2ncnc(Nc3ccc(OCc4ccccn4)c(C)c3)c2cc1OC"
  assignedLabel: -1
- compound: "CCc1nc2c(N)nc3ccccc3c2n1CC(C)(C)O"
  assignedLabel: -1

----------
# testProtocol: in vitro
# testSettings: Beagle, dog, plasma
Residues, ends and D or L forms follow the SMILES beside them.
# if value of fraction unbound at 5 h reaches 0.05, tag t; if it stays below, tag f

- compound: "CC(C)Oc1cc(Nc2nc(N[C@@H](C)c3ncc(F)cn3)ncc2Cl)n[nH]1"
  assignedLabel: "t"
- compound: "CC(C)Oc1ccc2c(=O)c(-c3ccccc3)coc2c1"
  assignedLabel: "f"
- compound: "O=C(O)[C@H](Cc1ccccc1)N1CCC(CN2CCC(Oc3ccc(Cl)c(Cl)c3)CC2)CC1"
  assignedLabel: "t"
- compound: "C[C@H](NC(=O)[C@@H](Cc1c[nH]c2ccccc12)NC(=O)[C@@H](N)Cc1c[nH]cn1)C(=O)N[C@@H](Cc1c[nH]c2ccccc12)C(=O)N[C@H](Cc1ccccc1)C(=O)N[C@@H](CCCCN)C(N)=O (HELM PEPTIDE1{H.[dW].A.W.[dF].K.[am]}$$$$V2.0)"
  assignedLabel: "t"
- compound: "COc1ccc(NC(=O)c2ccc(Cn3ccnn3)c3ccccc23)c(C(=O)NCC2CCOCC2)n1"
  assignedLabel: "f"
- compound: "CCN(Cc1cc(C(F)(F)F)ccc1-c1cc(CC(=O)O)ccc1OC)C(=O)NCc1ccccc1"
  assignedLabel: "f"
- compound: "CC(C)(C)NC(=O)NCCN1CCN(CC(=O)NC23CC4CC(CC(C4)C2)C3)CC1"
  assignedLabel: "t"
- compound: "C[S+]([O-])Cc1ccc(C(=O)Nc2ccc(OCCOCCO)nc2C(=O)NCC2CCC2)c2ccccc12 (configuration not stated)"
  assignedLabel: "t"
- compound: "O=C(Cn1c(Cl)cnc(NCC(F)(F)c2ccccn2)c1=O)NCc1ncccc1F"
  assignedLabel: "t"
- compound: "CCc1c(C(=O)C(N)=O)c2c(OCC(=O)O)cccc2n1Cc1ccccc1"
  assignedLabel: "t"
- compound: "CC(C)(C)NC(=O)c1ccc(Oc2cc(F)c(CC(=O)O)cc2Cl)c(NS(=O)(=O)c2ccc(C3CC3)cc2Cl)c1"
  assignedLabel: "f"
- compound: "COc1cc2c(cc1OC)C(=O)C(CC1CCN(Cc3ccccc3)CC1)C2 (configuration not stated)"
  assignedLabel: "t"
- compound: "COc1ccc2c(c1)c(CC(=O)O)c(C)n2-c1ccnc2cc(Cl)ccc12"
  assignedLabel: "f"
- compound: "CCCCNc1nc(SCCC)nc2c1nnn2[C@@H]1C[C@H](CO)[C@@H](O)[C@H]1O"
  assignedLabel: "f"
- compound: "CCOc1cc2nnc(C(N)=O)c(Nc3ccc(C)cc3F)c2cc1N1CCN(C)CC1"
  assignedLabel: "t"
- compound: "CCNC(=O)[C@H]1C[C@@](F)(c2ccc(CN3CCCC3)c(F)c2)C1"
  assignedLabel: "t"
- compound: "CC1=C(C)C(=O)C(C(CCCCCC(=O)O)c2ccccc2)=C(C)C1=O (configuration not stated)"
  assignedLabel: "f"

----------
// solubility thermodynamic lookup, one value per entry
# testProtocol: physchem
# testSettings: pH 7.4 buffer
endpointLabel: solubility thermodynamic (µM)

- compound: "Cc1cc(Nc2nc(NCc3cc(C)no3)ncc2Br)[nH]n1"
  valueObserved: 61.7
- compound: "c1ccc(Nc2ncnc3ccccc23)cc1"
  valueObserved: 132
- compound: "C[C@@H](O)C(=O)N1CC=C(c2c(F)cc(N3C[C@H](COc4ccon4)OC3=O)cc2F)CC1"
  valueObserved: 25.1
- compound: "NC1(Cc2ccc(Cl)cc2)CCN(c2ncnc3[nH]ccc23)CC1"
  valueObserved: 339
- compound: "CC1(c2c(C(=O)NC3C4CC5CC(C4)CC3C5)cnn2-c2ccc(C(=O)O)cc2)CC1 (stereo not given)"
  valueObserved: 661
- compound: "COc1cc2ncnc(Nc3ccc(Cl)c(O)c3)c2cc1OC"
  valueObserved: 1.4
- compound: "CC(C)Oc1cc(OCC2CCCC2)cc(C(=O)Nc2ccc(C(=O)O)cn2)c1"
  valueObserved: 45.7
- compound: "Cc1nc(-c2c(C)n(Cc3c(F)cccc3F)c(=O)n(C[C@H](N)c3ccccc3)c2=O)cs1"
  valueObserved: 1510
- compound: "O=C(O)[C@H](Cc1cccc(F)c1)N1CCC(CN2CCC(Oc3ccc(Cl)c(Cl)c3)CC2)CC1"
  valueObserved: 417
- compound: "Cc1ncc(-c2ccnc(Nc3ccccc3)n2)n1C(C)C"
  valueObserved: 35.5

----------
# testProtocol: physchem
// values below are reported pKa

- compound: "Cc1nc(N)sc1C"
  pKa: 6.3
- compound: "O=C(O)c1cccc(C(=O)N2CCC(N3CCC(Oc4ccc(Cl)c(Cl)c4)CC3)CC2)c1"
  pKa: 8.6
- compound: "Cc1ccc2c(c1)c(-c1ccnc3c(C(F)(F)F)cccc13)c(C)n2CC(=O)O"
  pKa: 3.5
- compound: "COc1ccnc(NC2CCN(C(=O)c3ccc(Cl)cc3)CC2)c1"
  pKa: 7.2
- compound: "Cc1cc(CN(CC(=O)Nc2ccc(Cl)cc2Cl)C2CCCCC2)ccc1OCC(=O)O"
  pKa: 6.7
- compound: "O=C1CC2(CCCC2)CC(=O)N1CCCCN1CCN(c2ncccn2)CC1"
  pKa: 7.61
- compound: "c1ccc2c(CC3=NCCN3)cccc2c1"
  pKa: 10.3
- compound: "CC(C)NCC(O)COc1ccc(COCCOC(C)C)cc1 (stereo unspecified)"
  pKa: 9.87
- compound: "COc1cccc(C(=O)NCCN2CCC(Oc3ccc(Cl)c(Cl)c3)CC2)c1"
  pKa: 7.4
- compound: "COc1c(N2CCNC(C)C2)c(F)cc2c(=O)c(C(=O)O)cn(C3CC3)c12 (stereo unspecified)"
  pKa: 9.18
- compound: "C[C@H]1CN(Cc2cc(Cl)ccc2OCC(=O)O)CCN1C(=O)Cc1ccccc1"
  pKa: 7
- compound: "COc1cc2nc(-c3ccc(N4CCN(C)CC4)cc3)nc(NCCN3CCOCC3)c2cc1OC"
  pKa: 7.93
- compound: "O=C(O)COc1ccc(C(F)(F)F)cc1CN1CCN(C(=O)c2ccccc2)CC1"
  pKa: 6.9
- compound: "O=C(O)C(c1ccccc1)N1CCC(N2CCC(Oc3ccc(Cl)c(Cl)c3)CC2)CC1 (stereo unspecified)"
  pKa: 9.1
- compound: "NCc1ccccc1CC(=O)N[C@@H]1C(=O)N2C(C(=O)O)=C(CSc3nnnn3CC(=O)O)CS[C@H]12 [CEFORANIDE]"
  pKa: 8.88
- compound: "NC1CCN(c2c(F)cc3c(=O)c(C(=O)O)cn(C4CC4)c3c2Cl)C1 (stereo unspecified)"
  pKa: 9.1
- compound: "CCC(=O)NC(c1cccs1)c1cc(Cl)c2cccnc2c1O (stereo unspecified)"
  pKa: 2.5
- compound: "O=C(NCC12CC3CC(CC(C3)C1)C2)c1cc(OC2CCNCC2)ncc1Cl"
  pKa: 9.1
- compound: "NC1=NC(c2ccc(F)cc2)Nc2cccc(F)c21 (stereo unspecified)"
  pKa: 9
- compound: "O=C(O)C(c1ccccc1)N1CCC(CN2CCC(Oc3ccc(Cl)c(Cl)c3)CC2)CC1 (stereo unspecified)"
  pKa: 9.6
- compound: "CON(C)C(=O)c1c(Cn2c(C)nc(Cl)c2Cl)sc2c1c(=O)n(C)c(=O)n2CC(C)C"
  pKa: 2.7
- compound: "CCN(CC)CCNC(=O)c1ccc(NC(C)=O)cc1 [ACECAINIDE]"
  pKa: 9.14
- compound: "CCCCc1nc2c(N)nc3ccccc3c2n1CC(C)C"
  pKa: 7.3
- compound: "CCc1nc2cc(O)ccc2c(Oc2ccc(/C=C/C(=O)O)cc2)c1-c1ccccc1"
  pKa: 5.51
- compound: "N#Cc1ccc(C(F)(F)F)nc1O[C@H](CCN)c1ccno1"
  pKa: 9.5
- compound: "NC1CCc2c(ccc(O)c2O)C1 (stereo unspecified)"
  pKa: 10.5
- compound: "CC1=NC(c2cccc(-c3cncc(Cl)c3)c2)(C2CC2)N=C1N (stereo unspecified)"
  pKa: 6.04
- compound: "CC(C)(C)NC(=O)[C@@H]1C[C@@H]2CCCC[C@@H]2CN1C[C@@H](O)[C@H](Cc1ccccc1)NC(=O)[C@H](CC(N)=O)NC(=O)c1ccc2ccccc2n1"
  pKa: 7.14
- compound: "CCOC(=O)N1CCC2(CC1)N=C(N)c1c(Cl)cccc1N2"
  pKa: 9
- compound: "Nc1nc2c(ncn2CCC(CO)CO)c(=O)[nH]1"
  pKa: 2.97
- compound: "O=C(O)Cc1cccc(N2CCC(CN3CCC(Oc4ccc(Cl)c(Cl)c4)CC3)CC2)c1"
  pKa: 8.9
- compound: "Cc1c(O)nc(N)nc1-c1ccccc1"
  pKa: 4.37
- compound: "CCOC(=O)C1=C(C)NC(C)=C(C(C)=O)[C@H]1c1cccc2c(=O)cc(C)oc12"
  pKa: 2.22
- compound: "CCc1ncc[nH]1"
  pKa: 7.8
- compound: "COc1ccc(OC)c(CNc2[nH]nc3cccc(Oc4ccccc4)c23)c1"
  pKa: 3.8
- compound: "Cc1nc2n(c(=O)c1CCN1CCC(c3noc4cc(F)ccc34)CC1)CCCC2"
  pKa: 8.49
- compound: "CC1(C)S[C@@H]2[C@H](NC(=O)[C@H](N)c3ccc(O)cc3)C(=O)N2[C@H]1C(=O)O"
  pKa: 7.52
- compound: "O=C(NCC12CC3CC(CC(C3)C1)C2)c1ccnc(N2CCNCC2)c1Cl"
  pKa: 8.7
- compound: "Cc1cc(CN2Cc3ccccc3C2C(=O)Nc2ccc(Cl)cc2Cl)ccc1OCC(=O)O (stereo unspecified)"
  pKa: 5.6
- compound: "COc1ccnc(CSc2nc3ccccc3[nH]2)c1"
  pKa: 5.3
- compound: "Cc1n[nH]c(C)c1Cc1sc2c(c1C(=O)N1C[C@H](O)CO1)c(=O)n(C)c(=O)n2CC(C)C"
  pKa: 3.4
